Experiment Summary: Blood levels and half-life of BL-P2024 after oral administration of various doses to mice (Table 5)
Assay type: in vivo
Experimental Conditions: mouse, oral 50 mg/kg, 90 min, read-out: Blood level
Measurement Label: concentration at […] (ng/mL)
Numeric answer only, unit ng/mL assumed.

**Query** Fill blank: measured concentration at […] of the compound CC(C)(C)C(=O)OCOC(=O)C1N2C(=O)CC2S(=O)(=O)C1(C)CCl (stereo not shown) is ____.
**Result** 4700

----------
Experiment Summary: Blood levels and half-life of BL-P2024 after oral administration of various doses to mice (Table 5)
Assay type: in vivo
Experimental Conditions: mouse, oral 200 mg/kg, 30 min, assay organism S. aureus A9606, read-out: Blood level
Measurement Label: concentration at 0.5 h (ng/mL)
Response body: numeric value in ng/mL, unit text excluded.

**Query** Reported concentration at 0.5 h, compound CC(C)(C)C(=O)OCOC(=O)C1N2C(=O)CC2S(=O)(=O)C1(C)CCl (stereo not shown) [BL-P2024] : ____
**Result** 14400

----------
Experiment Summary: Blood levels and half-life of BL-P2024 after oral administration of various doses to mice (Table 5)
Type: in vivo
Experimental Conditions: mouse, oral 200 mg/kg, 60 min, assay organism S. aureus A9606, read-out: Blood level
Measurement Label: concentration at 1 h (ng/mL)
Give the quantity in ng/mL, number only.

**Query** Which value of concentration at 1 h has been reported for CC(C)(C)C(=O)OCOC(=O)C1N2C(=O)CC2S(=O)(=O)C1(C)CCl (stereo not shown) in the records?
**Result** 9800

----------
Experiment Summary: Blood levels after oral administration to mice (Table 4)
Type: in vivo
Experimental Conditions: mouse, 100 mg/kg, oral 100 mg/kg, 90 min, assay organism S. aureus A-9606, read-out: Blood level
Measurement Label: concentration at […]

**Query** Item under review: CC1(CCl)C(C(=O)O)N2C(=O)CC2S1(=O)=O (stereo not shown) . Reported concentration at […]?
**Result** < 2600 ng/mL

----------
Experiment Summary: Blood levels and half-life of BL-P2024 after oral administration of various doses to mice (Table 5)
Type: in vivo
Experimental Conditions: mouse, oral 100 mg/kg, 30 min, read-out: Blood level
Measurement Label: concentration at 0.5 h (ng/mL)
Number in ng/mL, nothing else.

**Query** I have this molecule here, CC(C)(C)C(=O)OCOC(=O)C1N2C(=O)CC2S(=O)(=O)C1(C)CCl (stereo not shown) [BL-P2024] , and I need its recorded concentration at 0.5 h.
**Result** 12200

----------
Experiment Summary: Blood levels after oral administration to mice (Table 4)
Assay type: in vivo
Experimental Conditions: mouse, 100 mg/kg, oral 100 mg/kg, assay organism E. coli A-9675
Catalogue of molecules with associated half-life
// return numeric value only (unit: h, not printed)

Molecule	half-life, h
CC(C)(C)C(=O)OCOC(=O)C1N2C(=O)CC2S(=O)(=O)C1(C)CCl (centres unmarked)	1.17

**Query** So what's the measured half-life for this one? CC1(CCl)C(C(=O)O)N2C(=O)CC2S1(=O)=O (centres unmarked)
**Result** 0.833

----------
Experiment Summary: Blood levels and half-life of BL-P2024 after oral administration of various doses to mice (Table 5)
Assay type: in vivo
Experimental Conditions: mouse, oral 25 mg/kg, 15 min, read-out: Blood level
Measurement Label: concentration at […] (ng/mL)
Only the number, expressed in ng/mL, is required.

**Query** concentration at […] for CC(C)(C)C(=O)OCOC(=O)C1N2C(=O)CC2S(=O)(=O)C1(C)CCl (stereo not shown) ?
**Result** 5900

These entries and their values trace back to patent US4340539A.
